The values you see were collected from patent US20210147541A1.

Target: T1, human CADM3 (human, UniProt Q8N126 25-398)
T1 construct: Full-length gene expressed transiently on Expi293F cells; also called cell adhesion molecule 3; human CADM3/Expi293F cells
T1 sequence: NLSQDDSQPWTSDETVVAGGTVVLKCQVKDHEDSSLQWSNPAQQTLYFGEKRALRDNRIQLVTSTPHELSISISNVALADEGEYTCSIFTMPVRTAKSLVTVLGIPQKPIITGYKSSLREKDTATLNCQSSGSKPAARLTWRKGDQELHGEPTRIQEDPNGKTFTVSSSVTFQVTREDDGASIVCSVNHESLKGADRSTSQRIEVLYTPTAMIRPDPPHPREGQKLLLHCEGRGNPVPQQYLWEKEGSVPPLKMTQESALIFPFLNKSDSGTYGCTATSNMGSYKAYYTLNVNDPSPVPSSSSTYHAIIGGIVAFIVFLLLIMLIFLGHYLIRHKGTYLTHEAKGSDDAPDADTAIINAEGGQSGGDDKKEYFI
Experiment: flow cytometry, 10 ug/mL, human CADM3/Expi293F vs parent Expi293F cells
OUTCOME MEASURE: Mean fluorescence intensity ratio
Answers are plain numbers.

BINDER	Mean fluorescence intensity ratio
iCADM3_3R1-L10 VHH-hG4PE(R409K) (Fc fusion, VHH-Fc antibody; also called anti-CADM3 VHH-Fc antibody iCADM3_3R1-L10; not shown: Hinge-CH2-CH3 region of the human IgG4 heavy chain constant region (IgG4 variant)) QVQLVESGGGLVQAGGSLRLSCAASGSIFSIHAMGWYRQAPGKQRELVATVTSGGSTNYADSVKGRFTISRDNAKNTVYLQMNSLKPEDTAVYYCNAETPYYSSTYYTNYWGQGTQVTVSS	37.5

// each listed binder needs a value for Mean fluorescence intensity ratio
1. iCADM3_3R1-L8 VHH-hG4PE(R409K) (Fc fusion, VHH-Fc antibody; also called anti-CADM3 VHH-Fc antibody iCADM3_3R1-L8; not shown: Hinge-CH2-CH3 region of the human IgG4 heavy chain constant region (IgG4 variant)) QVQLVESGGGLVQPGGSLRLSCAASGRTFSNYARGWFRQAPGKEREFVAAIDYSGGSTNYADSAKGRFTISRDNAKNTVYLQMNSLKPGDTAVYYCAAPASRRPSWDADGYDYWGQGTQVTVSS
2. CADM301 scFv-hG4PE (Fc fusion, also called anti-CADM3 scFv-Fc antibody) VH: QVQLVQSGAEVRRPGTSVKVSCKASGYSFTSYDINWVRLATGQGLEWMGWMNPNTGDTGSPQKFQDRVTMTRDISTGTAYLELRGLKSEDTAIYYCARGFLVTAYTAEFFPHWGQGTLVTVSS VL: SYVLTQPPSVSVAPGKTARLTCGGNNIGSKSVHWYQQRPGQAPVLVINYDSDRPSGIPERFSGSNSENTATLTISRVEAGDEADYYCQVWDSGSDHVVFGGGTQLIIL

5.84
4.22
